The reported numbers originate from PubChem BioAssay AID1963845.

# Tested on: 429239-143-T-J1-PDC complex spheroid viability;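 note: luminescence signal used as surrogate measure of viable cells; spheroids exposed to compounds for seven days before readout; 100% = DMSO vehicle control viability as luminescence relative to vehicle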
# PROCEDURE_TEXT: Anticancer human tumor 429239-143-T-J1-PDC patient-derived small cell lung carcinoma cell line growth inhibition [POLQ]
# STATED_CONDITIONS: second compound 0.0316 µM; first compound 10 µM; hits give low values
EXPERIMENTAL_ENDPOINT: viability, T/C (%)
API: value field is a number in %; no unit string.

So the reported viability, T/C for CC(C)n1c(=O)n(C)c2cnc3cc(F)c(-c4ccc(OCCCN5CCCCC5)nc4)cc3c21 + Cc1cccc(N(C)C(=O)C2C(O)CCN2c2nc(C)cc(C(F)(F)F)c2C#N)c1 , on 429239-143-T-J1-PDC complex spheroid viability, turned out to be 72.5

So the reported viability, T/C for C#Cc1c(F)ccc2cc(O)cc(-c3ncc4c(N5CC6CCC(C5)N6)nc(OCC56CCCN5CC(F)C6)nc4c3F)c12 (stereo not drawn) + Cc1cccc(N(C)C(=O)C2C(O)CCN2c2nc(C)cc(C(F)(F)F)c2C#N)c1 , on 429239-143-T-J1-PDC complex spheroid viability, turned out to be 100

So the reported viability, T/C for CCc1cc2c(N3CCc4c(cc(Cn5ccnc5)cc4-c4cn(C)nc4C(F)(F)F)C3=O)ccnc2c(OC)n1 + Cc1cccc(N(C)C(=O)C2C(O)CCN2c2nc(C)cc(C(F)(F)F)c2C#N)c1 , on 429239-143-T-J1-PDC complex spheroid viability, turned out to be 49.8
